Values from the supplement of paper PMC11424490

- System: SW837
- Assay info: combination cScore with adagrasib (Bliss gap around IC50) (%PoC); higher = stronger additive effect
Reported metric: combination cScore with adagrasib
Give a plain numeric answer without units written out.

Task: Report combination cScore with adagrasib for CN[C@H]1CN(c2ccc3c(=O)c(C(=O)O)cn(-c4nccs4)c3n2)C[C@@H]1OC [Vosaroxin] + C=C(F)C(=O)N1CCN(c2nc(OC[C@@H]3CCCN3C)nc3c2CCN(c2cccc4cccc(Cl)c24)C3)C[C@@H]1CC#N please.
Output: 4.99

Task: Consider the compound shown here: Nc1nc(Cl)nc2c1ncn2[C@@H]1O[C@H](CO)[C@@H](O)[C@@H]1F [Clofarabine] + C=C(F)C(=O)N1CCN(c2nc(OC[C@@H]3CCCN3C)nc3c2CCN(c2cccc4cccc(Cl)c24)C3)C[C@@H]1CC#N What is its recorded combination cScore with adagrasib?
Output: 1.46

Task: Requested field: combination cScore with adagrasib. Item: CCc1nc(N)nc(N)c1-c1ccc(Cl)cc1 [Pyrimethamine] + C=C(F)C(=O)N1CCN(c2nc(OC[C@@H]3CCCN3C)nc3c2CCN(c2cccc4cccc(Cl)c24)C3)C[C@@H]1CC#N
Output: -3.37

Task: # query: combination cScore with adagrasib of entry O=C(c1ccc(F)c(F)c1Nc1ccc(I)cc1F)N1CC(O)([C@@H]2CCCCN2)C1 [Cobimetinib] + C=C(F)C(=O)N1CCN(c2nc(OC[C@@H]3CCCN3C)nc3c2CCN(c2cccc4cccc(Cl)c24)C3)C[C@@H]1CC#N
Output: 13.2

Task: Given C=CC(=O)Nc1cc(Nc2nccc(-c3cn(C)c4ccccc34)n2)c(OC)cc1N(C)CCN(C)C [Osimertinib] + C=C(F)C(=O)N1CCN(c2nc(OC[C@@H]3CCCN3C)nc3c2CCN(c2cccc4cccc(Cl)c24)C3)C[C@@H]1CC#N , state its recorded combination cScore with adagrasib.
Output: 26.1

Task: Give the measured combination cScore with adagrasib of O=C(CCCCCCC(=O)Nc1ccccc1)NO [Vorinostat] + C=C(F)C(=O)N1CCN(c2nc(OC[C@@H]3CCCN3C)nc3c2CCN(c2cccc4cccc(Cl)c24)C3)C[C@@H]1CC#N .
Output: 14.9

Task: // query combination cScore with adagrasib value for entry CCCc1cc(C)[nH]c(=O)c1CNC(=O)c1cc(-c2ccnc(N3CCN(C)CC3)c2)cc2c1cnn2C(C)C [GSK343] + C=C(F)C(=O)N1CCN(c2nc(OC[C@@H]3CCCN3C)nc3c2CCN(c2cccc4cccc(Cl)c24)C3)C[C@@H]1CC#N
Output: -0.82

Task: I'd like to know its combination cScore with adagrasib. The compound in question is COc1cc2cc(c1Cl)N(C)C(=O)C[C@H](OC(=O)C(C)C)[C@]1(C)O[C@@H]1[C@H](C)[C@@H]1C[C@@](O)(NC(=O)O1)[C@H](OC)/C=C/C=C(\C)C2 [Ansamitocin P3] + C=C(F)C(=O)N1CCN(c2nc(OC[C@@H]3CCCN3C)nc3c2CCN(c2cccc4cccc(Cl)c24)C3)C[C@@H]1CC#N
Output: 2.67

Task: Given the compound CC1=C(/C=C/C(C)=C/C=C/C(C)=C/C(=O)O)C(C)(C)CCC1 [Tretinoin] + C=C(F)C(=O)N1CCN(c2nc(OC[C@@H]3CCCN3C)nc3c2CCN(c2cccc4cccc(Cl)c24)C3)C[C@@H]1CC#N , what is its reported combination cScore with adagrasib?
Output: 2.87

Task: Quick one: combination cScore with adagrasib for O=C(O)C1(C(=O)O)CCC1.[NH2-].[NH2-].[Pt+2] [Carboplatin] + C=C(F)C(=O)N1CCN(c2nc(OC[C@@H]3CCCN3C)nc3c2CCN(c2cccc4cccc(Cl)c24)C3)C[C@@H]1CC#N ?
Output: -6.32

Task: Entry CC[C@]1(O)C[C@@H]2CN(CCc3c([nH]c4ccccc34)[C@@](C(=O)OC)(c3cc4c(cc3OC)N(C)[C@H]3[C@@](O)(C(=O)OC)[C@H](OC(C)=O)[C@]5(CC)C=CCN6CC[C@]43[C@@H]65)C2)C1 [Vinblastine] + C=C(F)C(=O)N1CCN(c2nc(OC[C@@H]3CCCN3C)nc3c2CCN(c2cccc4cccc(Cl)c24)C3)C[C@@H]1CC#N has what combination cScore with adagrasib?
Output: 4.5

Task: Fill in: combination cScore with adagrasib of COc1cc2nccc(Oc3ccc(NC(=O)C4(C(=O)Nc5ccc(F)cc5)CC4)cc3)c2cc1OC [XL-184] + C=C(F)C(=O)N1CCN(c2nc(OC[C@@H]3CCCN3C)nc3c2CCN(c2cccc4cccc(Cl)c24)C3)C[C@@H]1CC#N is ___
Output: 9.25

Task: Which combination cScore with adagrasib reading was recorded for the compound CN(C)C/C=C/C(=O)Nc1cc2c(Nc3ccc(F)c(Cl)c3)ncnc2cc1O[C@H]1CCOC1 [Afatinib] + C=C(F)C(=O)N1CCN(c2nc(OC[C@@H]3CCCN3C)nc3c2CCN(c2cccc4cccc(Cl)c24)C3)C[C@@H]1CC#N ?
Output: 21.2

Task: Entry O=c1cc(-c2cccc3c2Sc2ccccc2S3)oc(N2CCOCC2)c1 + C=C(F)C(=O)N1CCN(c2nc(OC[C@@H]3CCCN3C)nc3c2CCN(c2cccc4cccc(Cl)c24)C3)C[C@@H]1CC#N has what combination cScore with adagrasib?
Output: 4.85

Task: Request the reported combination cScore with adagrasib associated with O=C(O)CCCCC(CCSCc1ccccc1)SCc1ccccc1 (stereo unspecified) [CPI-613] + C=C(F)C(=O)N1CCN(c2nc(OC[C@@H]3CCCN3C)nc3c2CCN(c2cccc4cccc(Cl)c24)C3)C[C@@H]1CC#N
Output: 1.41

Task: I'd like to know its combination cScore with adagrasib. The compound in question is Cc1ncc(NC(=O)c2cccc(C(F)(F)F)c2)cc1-c1cnc(OC2CCOCC2)c(N2CCOCC2)c1 [RAF-709] + C=C(F)C(=O)N1CCN(c2nc(OC[C@@H]3CCCN3C)nc3c2CCN(c2cccc4cccc(Cl)c24)C3)C[C@@H]1CC#N
Output: 4.87

---

Hi there, I'd appreciate the recorded combination cScore with adagrasib for every entry that follows.
- System: NCI-H358
- Assay info: combination cScore with adagrasib (Bliss gap around IC50) (%PoC); higher = stronger additive effect

Task: Param item = O=c1cc(-c2cccc3c2Sc2ccccc2S3)oc(N2CCOCC2)c1 + C=C(F)C(=O)N1CCN(c2nc(OC[C@@H]3CCCN3C)nc3c2CCN(c2cccc4cccc(Cl)c24)C3)C[C@@H]1CC#N [adagrasib] ; retrieve measured combination cScore with adagrasib.
Output: 7.9

Task: Could you tell me which combination cScore with adagrasib is on file for CCN1CCN(Cc2ccc(Nc3ncc(F)c(-c4cc(F)c5nc(C)n(C(C)C)c5c4)n3)nc2)CC1 [Abemaciclib] + C=C(F)C(=O)N1CCN(c2nc(OC[C@@H]3CCCN3C)nc3c2CCN(c2cccc4cccc(Cl)c24)C3)C[C@@H]1CC#N [adagrasib] ?
Output: 4.46

Task: // lookup combination cScore with adagrasib for O=C(O)CNC(=O)c1c(O)c2ccccc2n(Cc2ccccc2)c1=O [IOX2] + C=C(F)C(=O)N1CCN(c2nc(OC[C@@H]3CCCN3C)nc3c2CCN(c2cccc4cccc(Cl)c24)C3)C[C@@H]1CC#N [adagrasib]
Output: 0.22

Task: What value of measured combination cScore with adagrasib is listed for C[C@@H]1CN(CC(=O)Nc2ccc3c(c2)Cc2cccc(-c4cc(=O)cc(N5CCOCC5)o4)c2S3)C[C@H](C)O1 + C=C(F)C(=O)N1CCN(c2nc(OC[C@@H]3CCCN3C)nc3c2CCN(c2cccc4cccc(Cl)c24)C3)C[C@@H]1CC#N [adagrasib] ?
Output: 6.62

---

- Tested on: NCI-H2122
- Assay info: combination cScore with sotorasib (Bliss gap around IC50) (%PoC); higher = stronger additive effect
Hi there, I'd appreciate the recorded combination cScore with sotorasib for every entry that follows.
Give the figure by itself; no unit, no explanation.

Task: Would you kindly share the measured combination cScore with sotorasib for COc1cc([C@@H]2c3cc4c(cc3[C@@H](O[C@@H]3O[C@@H]5CO[C@@H](C)O[C@H]5[C@H](O)[C@H]3O)[C@H]3COC(=O)[C@H]23)OCO4)cc(OC)c1O [Etoposide] + C=CC(=O)N1CCN(c2nc(=O)n(-c3c(C)ccnc3C(C)C)c3nc(-c4c(O)cccc4F)c(F)cc23)[C@@H](C)C1 [sotorasib] ?
Output: 14.1

Task: Please give the measured combination cScore with sotorasib for this compound: C[C@@H]1CN(CC(=O)Nc2ccc3c(c2)Cc2cccc(-c4cc(=O)cc(N5CCOCC5)o4)c2S3)C[C@H](C)O1 + C=CC(=O)N1CCN(c2nc(=O)n(-c3c(C)ccnc3C(C)C)c3nc(-c4c(O)cccc4F)c(F)cc23)[C@@H](C)C1 [sotorasib]
Output: 17.1

Task: Query: combination cScore with sotorasib; subject: CC/C(=C(\c1ccccc1)c1ccc(OCCN(C)C)cc1)c1ccccc1 [Tamoxifen] + C=CC(=O)N1CCN(c2nc(=O)n(-c3c(C)ccnc3C(C)C)c3nc(-c4c(O)cccc4F)c(F)cc23)[C@@H](C)C1 [sotorasib]
Output: 11.1

Task: combination cScore with sotorasib for Cc1c(CN2CCC(Nc3ncnc4sc(CC(F)(F)F)cc34)CC2)ccc2[nH]c(C#N)cc12 [MI-463] + C=CC(=O)N1CCN(c2nc(=O)n(-c3c(C)ccnc3C(C)C)c3nc(-c4c(O)cccc4F)c(F)cc23)[C@@H](C)C1 [sotorasib] ?
Output: 10.2
